Hello, the source for this data is ChEMBL document CHEMBL1153119, in case you need it.

Exercise: state measured IC50 for each of the compounds provided.
- System: 5-hydroxytryptamine receptor 2C (Homo sapiens)
- Assay overview: Antagonist activity against human 5HT2C receptor by FLIPR assay
Numbers only, in nM.

Some compounds with known IC50 results, for comparison:
- Clc1cccc(COc2nc(N3CCNCC3)nc3nc[nH]c23)c1: 410
- Clc1nc(N2CCNCC2)c2scc(-c3ccccc3)c2n1: 540
- Cc1csc2c(OCc3cccc(Cl)c3)nc(N3CCNCC3)nc12: 126

Hi, could you look up IC50 for each item in my list?
1. Clc1nc(N2CCNCC2)c2c3c(sc2n1)CCCC3
2. c1ccc2c(N3CCNCC3)nccc2c1

Result:
1. 710
2. 24

---

Exercise: state measured pEC50 for each of the compounds provided.
- System: 5-hydroxytryptamine receptor 2A (Homo sapiens, UniProt P28223)
- Sequence (P28223 whole entry): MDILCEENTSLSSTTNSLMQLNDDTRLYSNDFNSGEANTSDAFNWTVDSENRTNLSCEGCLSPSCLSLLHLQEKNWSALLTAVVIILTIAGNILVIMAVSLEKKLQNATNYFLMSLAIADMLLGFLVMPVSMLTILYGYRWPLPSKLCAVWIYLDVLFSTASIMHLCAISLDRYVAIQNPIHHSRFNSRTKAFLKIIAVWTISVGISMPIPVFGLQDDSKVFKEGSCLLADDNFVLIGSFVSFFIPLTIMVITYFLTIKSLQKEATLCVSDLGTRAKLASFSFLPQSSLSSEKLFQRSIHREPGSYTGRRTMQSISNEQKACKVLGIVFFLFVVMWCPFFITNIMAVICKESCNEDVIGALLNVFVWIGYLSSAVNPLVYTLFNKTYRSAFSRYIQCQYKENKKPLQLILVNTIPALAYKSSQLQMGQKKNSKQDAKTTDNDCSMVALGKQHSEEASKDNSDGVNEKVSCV
- Assay overview: Agonist activity against human 5HT2A receptor by FLIPR assay
- Format: functional
One number for each entry, as −log10 of the molar value.

- Clc1ccccc1O[C@H]1CCCc2ccc(N3CCNCC3)nc21: 7.15
- Clc1ccccc1O[C@@H]1CCc2ccc(N3CCNCC3)nc21: 5.88
- Fc1ccc(F)c(CO[C@H]2CCc3ccc(N4CCNCC4)nc32)c1: 5.82
- Clc1ccccc1O[C@@H]1CCCc2ccc(N3CCNCC3)nc21: 6.24

Hi, could you look up pEC50 for each item in my list?
1. C[C@@H]1CNCCN1c1ccc2c(n1)[C@@H](OCc1cc(F)ccc1F)CC2
2. Clc1ccccc1O[C@H]1CCc2ccc(N3CCNCC3)nc21

Result:
1. 5.85
2. 7.06

---

- Assay overview: Intrinsic clearance in dog microsomes at 0.3 mM
- Assay type: ADME, Canis lupus familiaris, Liver, Microsome
Property label: CLint scaled (mL/min/kg)
Answers are plain numbers, in mL/min/kg.

Value of measured CLint scaled for the entry Cc1ccc(F)cc1CO[C@H]1CCc2ccc(N3CCNC[C@H]3C)nc21 : 59

---

- System: UniProt P28335
Property label: pKi
Give bare numbers, as −log10 of the molar value.

Value of measured pKi for the entry Fc1cccc(O[C@H]2CCc3ccc(N4CCNCC4)nc32)c1 : 8.52

---

Exercise: state measured pEC50 for each of the compounds provided.
- System: 5-hydroxytryptamine receptor 2C (Homo sapiens)
- Sequence (P28335 whole entry): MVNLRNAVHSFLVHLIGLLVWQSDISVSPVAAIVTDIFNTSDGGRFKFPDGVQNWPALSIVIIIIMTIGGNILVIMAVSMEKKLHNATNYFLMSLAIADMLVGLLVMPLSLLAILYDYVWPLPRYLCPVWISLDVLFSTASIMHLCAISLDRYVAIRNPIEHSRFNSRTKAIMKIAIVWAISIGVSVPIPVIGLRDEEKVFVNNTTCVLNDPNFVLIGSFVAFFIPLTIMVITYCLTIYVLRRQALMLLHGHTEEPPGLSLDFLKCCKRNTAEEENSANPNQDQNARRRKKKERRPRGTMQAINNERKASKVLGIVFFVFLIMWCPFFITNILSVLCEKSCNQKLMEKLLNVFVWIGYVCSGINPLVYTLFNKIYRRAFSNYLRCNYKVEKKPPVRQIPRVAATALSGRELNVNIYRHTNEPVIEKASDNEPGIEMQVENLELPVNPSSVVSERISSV
- Assay overview: Agonist activity against human 5HT2C receptor by FLIPR assay
- Format: functional
One number for each entry, as −log10 of the molar value.

Some compounds with known pEC50 results, for comparison:
• c1nc(N2CCNCC2)c2ccsc2n1 = 6.28
• Clc1cccc(COc2nc(N3CCNCC3)nc3ccsc23)c1 = 5.59
• Clc1nc(N2CCNCC2)nc2sccc12 = 6.21
• Cc1cc2c(N3CCNCC3)ncnc2o1 = 6.18
• Clc1ccccc1OC1CCc2ccc(N3CCNCC3)nc21 (stereo not drawn) = 10.00
• COc1nc(N2CCNCC2)nc2c1CCCC2 = 5.30
• Clc1ccccc1O[C@@H]1CCCc2ccc(N3CCNCC3)nc21 = 6.92

Okay, now this compound:
Value of measured pEC50 for the entry CCCn1cnc2c(N3CCNCC3)ncnc21 : 5.90
